Assay: cytosolic pH regulators acting via V-ATPase – S. cerevisiae, pHLuorin, HTS validation (AID 504600);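 further: plate controls were DMSO for no effect and reference compound for full effect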
Details: V-ATPase proton transport, at 10 µM, hits give high values
Square brackets hold non-standard residues; d marks the D form. Peptide text beside a SMILES is read from it. ξ: configuration not given here. ξV = CC(C)C(N)C(=O)O
# response annotations
parameter-measured: response (%)

compound=C[C@H]1O[C@@H](O[C@H]2[C@@H](O)C[C@H](O[C@H]3[C@@H](O)C[C@H](O[C@H]4CC[C@@]5(C)[C@H](CC[C@@H]6[C@@H]5C[C@@H](O)[C@]5(C)[C@@H](C7=CC(=O)OC7)CC[C@]65O)C4)O[C@@H]3C)O[C@@H]2C)C[C@H](O)[C@@H]1O unit_abbreviation=% value_observed=1.64
compound=CCOC(=O)c1ccc(NC(=S)NCCc2ccccc2F)cc1 unit_abbreviation=% value_observed=1.24
compound=CCOC(=O)c1c(O)c2c([nH]c1=O)CCCC2 unit_abbreviation=% value_observed=-2.71
compound="O=C1C2CC=C(Cl)CC2C(=O)N1CCc1c[nH]c2ccccc12 (stereo not drawn)" unit_abbreviation=% value_observed=-1.1
compound=CN(C)CCCN1c2ccccc2CCc2ccccc21 unit_abbreviation=% value_observed=-0.62
compound=CC(=O)Nc1ccc(S(=O)(=O)c2ccc(N)cc2)cc1 unit_abbreviation=% value_observed=-1.44
compound="COc1ccc(NC(=O)CC(c2ccccc2)c2ccco2)cc1 (stereo not drawn)" unit_abbreviation=% value_observed=3.58
compound=CC1CCN(C(=O)Oc2ccccc2)CC1 unit_abbreviation=% value_observed=0.42
compound="CCOC(=O)c1cc2c(nc1N)CC(C)(CC)OC2 (stereo not drawn)" unit_abbreviation=% value_observed=-3.65
compound=Cc1ccc(C(=O)COC(=O)c2cnccn2)cc1[N+](=O)[O-] unit_abbreviation=% value_observed=-1.08
compound="Nc1nc2c(nc(SCc3ccccc3Br)n2C2OC(CO)C(O)C2O)c(=O)[nH]1 (stereo not drawn)" unit_abbreviation=% value_observed=-4.55
compound=Fc1ccc(NC(=S)Nc2ccccc2Cl)cc1 unit_abbreviation=% value_observed=0.15
compound="CC(C)=CC/C=C1\\CCC(C(=O)O)C(C(=O)O)C1 (stereo not drawn)" unit_abbreviation=% value_observed=1.64
compound=CN(C)CC/C=C1\c2ccccc2COc2ccccc21 unit_abbreviation=% value_observed=3.08
compound="Cc1c2c(nc3c(C)cccc13)OC(C)C2 (stereo not drawn)" unit_abbreviation=% value_observed=3.8
compound=N#CCC(N)=C(C#N)C#N unit_abbreviation=% value_observed=1.3
compound="COc1ccc2c(c1OC)C(=O)OC2C1c2c(cc3c(c2OC)OCO3)CCN1C (stereo not drawn)" unit_abbreviation=% value_observed=-1.48
compound=COc1ccc(C=O)c(OC)c1 unit_abbreviation=% value_observed=-1.57
compound="CC(=O)C1=C(Nc2ccc(C)cc2)CC(C)(O)C(C(C)=O)C1c1ccco1 (stereo not drawn)" unit_abbreviation=% value_observed=-0.29
compound="CC(C)(C)C(=O)N1CCCC1C(=O)O (stereo not drawn)" unit_abbreviation=% value_observed=-11
compound="CC1(C)CC(CC(=O)O)(c2ccc(Cl)cc2)CCO1 (stereo not drawn)" unit_abbreviation=% value_observed=0.57
compound="COc1ccc(CNC(=O)C2CCCN2C)cc1OC (stereo not drawn)" unit_abbreviation=% value_observed=-0.65
compound=COc1ccc(C(=O)NCc2cccnc2)cc1 unit_abbreviation=% value_observed=1.75
compound=NC(N)=N/N=C/c1c(Cl)cccc1Cl unit_abbreviation=% value_observed=-3.91
compound=CCNC(=O)c1c(N)sc2c1CCCCC2 unit_abbreviation=% value_observed=-1.51
compound=O=C(O)Cc1ccc(-c2ccccc2)cc1 unit_abbreviation=% value_observed=-1.1
compound=Cc1oc2cc(O)cc(O)c2c(=O)c1-c1ccc2c(c1)OCCCO2 unit_abbreviation=% value_observed=0.59
compound=NC(N)=NC(=O)Cc1c(Cl)cccc1Cl unit_abbreviation=% value_observed=-2.92
compound=O=C(/C=C/c1ccccc1)NCC1(c2ccccc2)CCOCC1 unit_abbreviation=% value_observed=-9.57
compound="Cc1ncoc1C(=O)N1CCCC(C(=O)c2ccc(-c3ccccc3)c(F)c2)C1 (stereo not drawn)" unit_abbreviation=% value_observed=-6.69
compound=C#C[C@]1(O)CC[C@H]2[C@@H]3CCc4cc(O)ccc4[C@H]3CC[C@@]21C unit_abbreviation=% value_observed=2.14
compound="CC(=O)NC(C(=O)NCC(N)=O)C(C)C (stereo not drawn) (Ac-[ξV]-Gly-NH2)" unit_abbreviation=% value_observed=0.49
compound=Cc1cc(OC(=O)CNC(=O)OC(C)(C)C)c2c(C)cc(=O)oc2c1 unit_abbreviation=% value_observed=-0.27
compound=O=C(O)CP(=O)(O)O unit_abbreviation=% value_observed=-1.85
compound="CC1=NN(C(=O)c2ccc(Br)cc2)C(O)(c2ccccc2)C1 (stereo not drawn)" unit_abbreviation=% value_observed=-3.1
compound=COc1cccc2c(=O)c3ccccc3oc12 unit_abbreviation=% value_observed=0.55
compound=O=c1ccc2c(o1)/C(=C/C=C(Cl)Cl)CCC2 unit_abbreviation=% value_observed=-6.24
compound=COc1ccc(CN2CCC(=O)NC2=O)cc1 unit_abbreviation=% value_observed=-0.38
compound=CC(C)Oc1cccc(C(=O)N2CCCC2)c1 unit_abbreviation=% value_observed=1.82
compound="CC1(C)CC(NC(=O)C23CCC(C)(C(=O)C2=O)C3(C)C)CC(C)(C)N1 (stereo not drawn)" unit_abbreviation=% value_observed=6.45
compound=O=C(NCCNc1ccc(Cl)cc1[N+](=O)[O-])c1cccnc1 unit_abbreviation=% value_observed=0.22
compound="CCN1C(=O)C(CC(=O)Nc2ccc(F)cc2)N(Cc2ccco2)C1=S (stereo not drawn)" unit_abbreviation=% value_observed=1.67
compound=O=C1CN(O)C=C2N=c3ccccc3=C2N1c1ccc([N+](=O)[O-])cc1 unit_abbreviation=% value_observed=1
compound=c1cnc2c(c1)ccc1cccnc12 unit_abbreviation=% value_observed=9.34
compound=c1ccc(Nc2ccccn2)nc1 unit_abbreviation=% value_observed=-2.96
compound=CC(C)CCc1noc(CN2CCC(CCN3CCCC3=O)CC2)n1 unit_abbreviation=% value_observed=-4.25
compound=COCCCN1C(=O)/C(=C\c2cccs2)C(C(=O)OC)=C1C unit_abbreviation=% value_observed=10.8
compound=COc1ccc(NC(=O)Nc2ccc(C(C)C)cc2)cc1 unit_abbreviation=% value_observed=-1.78
